- Test system: Mus musculus
- assay.comment: Anticonvulsant activity in Kunming mouse assessed as reduction in ScPTZ-induced seizure at 300 mg/kg, ip measured after 30 mins
- Type: functional, organism-based
Calls of active or inactive are those of the source. The rule behind the calls is not given here.

| smiles.repr | Activity |
| --- | --- |
| Cc1cccc(CSc2nnc(COc3ccc4c(c3)CCC(=O)N4)o2)c1 | Active |
| O=C1CCc2cc(OCc3nnc(SCc4cccc(C(F)(F)F)c4)o3)ccc2N1 | Active |
| O=C1CCc2cc(OCc3nnc(SCc4ccccc4F)o3)ccc2N1 | Active |
| Cc1ccccc1CSc1nnc(COc2ccc3c(c2)CCC(=O)N3)o1 | Active |
